# System: A498 renal
# assayMethodText: NCI tumour cell line growth inhibition, 48 h
propertyName: TGI (µM)
One number for each entry, in µM.

Solved cases (5 shown):
{"columns": ["molecule", "testSystem", "TGI [µM]"],
 "data": [
  ["c1ccc(C/C(=N\\Nc2nc3ccccc3o2)c2ccccn2)cc1", "A498 renal", 1.69],
  ["O=C(Nc1ccccc1)N1N=C(c2ccccc2)C1c1ccccc1 (stereo not given)", "A498 renal", 42.7],
  ["COc1ccc(S(=O)(=O)Nc2ccc(-c3csc(N4C(=O)/C(=C/C=C\\c5ccccc5)N=C4c4ccccc4)n3)cc2)cc1Cl", "A498 renal", 73.1],
  ["CCC1(N2C(=O)c3c(F)c(F)c(F)c(F)c3C2=O)C(=O)NC(=O)N(c2ccccc2)C1=O (stereo not given)", "A498 renal", 25.9],
  ["C[C@]12CC[C@@H]3c4ccc(O)cc4CC[C@H]3[C@@H]1CC[C@@H]2NS(=O)(=O)c1ccc(-c2ccccc2)cc1", "A498 renal", 9.13]
]}

Pending molecule:
Exercise: Notebook: pull reported TGI for A498 renal, entry CC(C)n1nc(C#Cc2cccc(NC(=O)c3cccc(C(F)(F)F)c3)c2)c2c(N)ncnc21
Solution: 2.51

* * *

Please go through the items and note down their TGI.
# Tested on: SK-OV-3 ovarian
# assayMethodText: NCI tumour cell line growth inhibition, 48 h
Answers are plain numbers, in µM.

{"columns": ["compound", "TGI [µM]"],
 "data": [
  ["CCCCC(=C=C1CCCCC1O)C1CCCN1C(=O)OC(C)(C)C (centres undefined)", 31.2]
]}

Exercise: Please give the measured TGI for this compound: CC(=O)Nc1ccc(-n2cnc3cc(-c4ccc(OCCN5CCCCC5)cc4)ccc32)cc1
Solution: 12.2

* * *

# Test system: SN12C renal
# assayMethodText: NCI tumour cell line growth inhibition, 48 h
Assign TGI to each entry below.

Look up TGI for the entries below, preserving their order.
1. Cc1nn(C(=O)c2ccccc2O)c2c1C(c1ccc(O)cc1)SC(N)=N2 (centres undefined)
2. O=C1c2cccc3cccc(c23)C(=O)N1CCCN1CCN(CCCN2C(=O)c3cccc4cccc(c34)C2=O)CC1
3. C/C(=N\NC(=S)N1CCC(C2CCN(C(=S)N/N=C(\C)c3ccccn3)CC2)CC1)c1ccccn1
4. CSc1nc(Br)nc2c1ncn2C1CC(Oc2ccc(C)cc2)C(COc2ccc(C)cc2)O1 (centres undefined)

Solution:
["> 10 µM", "> 100 µM", "> 100 µM", "> 100 µM"]

* * *

# System: OVCAR-3 ovarian
# assayMethodText: NCI tumour cell line growth inhibition, 48 h
Where a SMILES comes first, the peptide text is derived from it. The star is where a group is joined. Palmitoyl = CCCCCCCCCCCCCCCC(=O)*
propertyName: TGI (µM)
One number for each entry, in µM.

Consider the worked cases shown below.
{"columns": ["compound", "TGI (µM)"],
 "data": [
  ["CSC1(SC)CCCCCCCCCCC1", 72.7],
  ["COc1ccc(N(Cc2cc(OC)c(OC)c(OC)c2)C2OC(=O)c3ccccc32)cc1 (stereo unspecified)", 1.98],
  ["C#Cc1cccc(Nc2ncnc3ccc(-c4cncc(NS(C)(=O)=O)c4)cc23)c1", 3.25],
  ["C=C1C(=O)O[C@H]2C(=O)[C@H](C)CCC[C@@](C)(O)/C=C\\C[C@@]3(C)O[C@@H]3C[C@@H]12", 24.3],
  ["COC1(OC)/C(=C(\\N)C=O)NC(C)(C)N1O", 97.5]
]}

State recorded TGI for all listed compounds.
1. O=C(O)CCCc1nc2c(n1-c1ccccc1)C(=O)c1ccccc1C2=O
2. CC(C)n1nc(C#Cc2cccc(NC(=O)c3cccc(C(F)(F)F)c3)c2)c2c(N)ncnc21
3. CCOC(=O)Cc1csc(NC(=O)C(OC(=O)c2ccc(N)cc2)c2ccccc2)n1 (stereo unspecified)

Solution:
1: 82.7; 2: 28.9; 3: 45.3

Could I get TGI for every one of these entries?
1. C[C@]12CC[C@@H]3c4ccc(O)cc4CC[C@H]3[C@@H]1CC[C@@H]2NS(=O)(=O)c1ccc(-c2ccccc2)cc1
2. CCCCCCCCCCCCCCCC(=O)NC(CCCCN)C(=O)NCC(=O)NC(Cc1ccccc1)C(=O)N1CCCC1C(=O)NC(CO)C(=O)NC(Cc1ccc(O)cc1)C(=O)NC(CCCCN)C(=O)NC(CC(C)C)C(=O)NC(CCCN=C(N)N)C(=O)N1CCCC1C(=O)NCC(N)=O (stereo unspecified) (Palmitoyl-KGFPSYKLRPG-NH2; configuration not given here)
3. O=C(Nc1ccccc1)Nc1ccccc1CNc1nc(Nc2ccc(OCCN3CCCC3)cc2)ncc1Cl
4. CC(C)(C)NCCC(O)c1cc(C(F)(F)F)nc2c(C(F)(F)F)cccc12 (stereo unspecified)
5. COc1cc(OC)c(/C=C/S(=O)(=O)Cc2ccc(OC)c(NCC(=O)O)c2)c(OC)c1

Solution:
1. 12.7
2. 76.5
3. 2.36
4. 20.4
5. 0.533

* * *

So I've got a bunch of compounds here, and I need their TGI values.
# Tested on: SF-268 CNS
# assayMethodText: NCI tumour cell line growth inhibition, 48 h

Reference set (2 entries):
{"columns": ["compound", "propertyName", "measuredResult"],
 "data": [
  ["O=[N+]([O-])O.[NH-]C1CCCCC1[NH-].[NH-]C1CCCCC1[NH-].[NH-]C1CCCCC1[NH-].[OH-].[OH-].[OH-].[Pt+4].[Pt+4].[Pt+4] (stereo not given)", "TGI", "> 50.2 µM"],
  ["CSc1nc2c(ncn2C2OCC(O)C(O)C2O)c(=O)[nH]1 (stereo not given)", "TGI", "> 100 µM"]
]}

Working through the 7 compounds below one at a time, give TGI for each.
1. Cn1c(=O)c2[nH]c(N/N=C3/SCC(=O)N3Cc3ccccc3)nc2n(C)c1=O
2. CC(=O)OCC1OC(n2c3c(c(-c4ccco4)c(C#N)c2=S)CCCC3)C(OC(C)=O)C(OC(C)=O)C1OC(C)=O (stereo not given)
3. COc1ccc(N=C2NN=C(c3c[nH]c4ccccc34)CS2)cc1OC
4. COc1ncnc2c(-c3ccco3)cn(COCc3ccccc3)c12
5. Cc1csc(Nc2nc(-c3cccc(Cl)c3)nc(C(Cl)(Cl)Cl)n2)n1
6. COc1ccc(-c2c(C(C)=O)c(C)n(C3OC(CO)C(O)C(O)C3O)c(=S)c2C#N)cc1 (stereo not given)
7. Fc1nc(F)nc(-c2c3ccccc3c3n2CCS3)n1

Solution:
1. > 100 µM
2. > 31.6 µM
3. > 100 µM
4. > 50 µM
5. > 33.3 µM
6. > 100 µM
7. > 100 µM

Exercise: Which TGI is reported for this compound? Cc1ns/c(=N\C(=S)N(C)C)n1C
Solution: > 100 µM

* * *

I'd appreciate it if you could supply TGI values for the items below.
# System: SF-295 CNS
# assayMethodText: NCI tumour cell line growth inhibition, 48 h

Answered cases to consult:
{"columns": ["compound", "TGI"],
 "data": [
  ["COc1cc2c(cc1OC)C1Cc3ccccc3CN1CCC2 (stereo unspecified)", "> 100 µM"],
  ["COc1cc(CC(=O)c2ccc3c(c2)OCO3)cc(OC)c1OC", "> 100 µM"],
  ["Cc1ccc(C2=Nn3c(nc4sc(-c5ccccc5)cc4c3=O)SC2)cc1", "> 100 µM"],
  ["Cc1cccc(N2CCN(S(=O)(=O)c3ccc(Cl)cc3)C2=N)c1C", "> 100 µM"],
  ["CN1c2ccccc2C(=O)Nc2cnc(Cl)nc21", "> 100 µM"]
]}

Query compound follows.
Exercise: Can you look up TGI on SF-295 CNS for COCCCN1C(=O)C2c3[nH]c4ccccc4c3C3CCC(C(C)(C)C)CC3C2C1=O (stereo unspecified) ?
Solution: 56.3 µM

* * *

# System: SN12C renal
# assayMethodText: NCI tumour cell line growth inhibition, 48 h; in the data active means GI50 below about 0.43 µM; inactive means the rest
Select the matching outcome among active, inactive

Answered examples (3):
{"columns": ["molecule", "labelClass"],
 "data": [
  ["O=C1/C(=C/c2ccccc2)CN(C(=O)Oc2ccc([N+](=O)[O-])cc2)C/C1=C\\c1ccccc1", "inactive"],
  ["CCCCCCCCCCCCCCCC(=O)N[C@H]1CCc2cc(OC)c(OC)c(OC)c2-c2ccc(SC)c(=O)cc21", "inactive"],
  ["O=[N+]([O-])O.[NH-]C1CCCCC1[NH-].[NH-]C1CCCCC1[NH-].[NH-]C1CCCCC1[NH-].[OH-].[OH-].[OH-].[Pt+4].[Pt+4].[Pt+4] (centres undefined)", "active"]
]}

Let us examine a further case.
Exercise: Test call for this molecule, please: C[C@H](NC(=O)CCC(F)(F)F)C(=O)N[C@@H]1C(=O)N(CCO)c2ncccc2-c2ccccc21
Solution: inactive
